melting point values by entry

- molecule: "Cc1nc(-c2cn(Cc3ccc(C(F)(F)F)cc3)nn2)sc1C(=O)NCc1ccccc1"
  melting point: "131 to 132 °C"
- molecule: "CN(C1=CC(C)(C)Oc2ccc(OCCCC(F)(F)F)cc21)S(C)(=O)=O"
  melting point: "118 °C"
- molecule: "CC(=O)CS(=O)(=O)N(C)C"
  melting point: "47 to 49 °C"
- molecule: "COC(=O)c1ccc([N+](=O)[O-])cc1S(=O)(=O)Cl"
  melting point: "86 to 88 °C"
- molecule: "C[C@H](NC(=O)C1(C)Sc2ccccc2NC1=O)C(=O)N[C@H](CCC(=O)O)C(N)=O (stereo not given in full)"
  melting point: "124 to 125 °C"

====

Recorded melting point for the following compounds
readoutName: melting point

- compound: "CC(C)C(=O)N[C@@H](CSC(=O)C(C)C)C(=O)NCCSC(=O)c1ccccc1"
  measValue: "141 to 143 °C"
- compound: "CCOC(=O)c1ncn2c1CN(C)C(=O)c1sccc1-2"
  measValue: "160 to 162 °C"
- compound: "CCc1cc(=O)n(-c2cc(OC(C)C)c(Cl)cc2F)c(=O)n1C"
  measValue: "72 to 74 °C"
- compound: "CCc1cccc(C)c1CNc1cc(Br)cc2c1nc(COC)n2C"
  measValue: "110 to 112 °C"
- compound: "CC(C)(C)c1cc(CN)cc(C(C)(C)C)c1O"
  measValue: "159 °C"
- compound: "Cc1nn(-c2cc(OC(C)C(=O)NS(C)(=O)=O)c(Cl)cc2Cl)c(=O)n1C(F)F (stereo not given)"
  measValue: "185 to 188 °C"
- compound: "CC(C)(C)c1ccc(-c2nc3c4[nH]cnc4nc(CP(=O)(O)O)n3n2)cc1"
  measValue: "270 °C"
- compound: "COC1=NS(=O)N=C1NCCCCc1ncc(Br)cc1N (stereo not given)"
  measValue: "118 to 120 °C"
- compound: "N#CCCCCCc1nc(-c2ccc(Cl)cc2)c(-c2ccc(Cl)cc2)o1"
  measValue: "108 °C"
- compound: "Cc1oncc1C(=O)c1ccc(S(C)=O)c(Cl)c1Cl (stereo not given)"
  measValue: "125 to 126 °C"

====

Below, each entry is listed alongside its reported melting point.

- compound: "C=CCNC(=O)C1CCc2cc(C3CCCCC3)ccc2O1 (stereo not given)"
  melting point: "93 to 94 °C"
- compound: "Cc1c(SCc2ccco2)ccnc1CSc1nc2ccccc2[nH]1"
  melting point: "188 to 189 °C"
- compound: "CS(=O)(=O)c1c[nH]c(=O)c(I)c1"
  melting point: "273 to 276 °C"
- compound: "COc1cccc(N2CCN(Cc3ccccc3C(c3ccc(O)cc3)c3ccc(O)cc3)CC2)c1"
  melting point: "128 to 130 °C"
- compound: "Cc1ccc(-c2nc(C(F)(F)F)nn2-c2ccc(S(C)(=O)=O)cc2)cc1"
  melting point: "176 to 178 °C"
- compound: "CCOP(=O)(CCCOc1ccc(C(=O)O)cc1)OCC"
  melting point: "107 to 110 °C"
- compound: "Cn1c(=O)n(Cc2ccc(F)cc2)c(=O)c2cc(C(=O)c3nc(-c4cccnc4)c4ccccn34)ccc21"
  melting point: "207 °C"
- compound: "CCCCNc1cccc(O)c1"
  melting point: "35 °C"
- compound: "NCc1ccccc1C(F)(F)C(F)(F)c1ccc(F)cc1"
  melting point: "64 to 66 °C"
- compound: "CC(=O)OC(C(=O)c1cccnc1)c1cccnc1 (stereo not given)"
  melting point: "136 to 138 °C"
